# System: SN12C renal
# Assay procedure: NCI tumour cell line growth inhibition, 48 h
For each record, write down the corresponding TGI.
Give bare numbers, in µM.

Worked examples follow.
O=C1c2scc(-c3ccccc3)c2-n2cccc21 ... 74.8
C[CH2][Sn]([CH2]C)([O]C(=O)c1cccc(OC)c1)[O][Sn]([CH2]C)([CH2]C)[O]C(=O)c1cccc(OC)c1 ... 44.9
O=C(C=P(c1ccccc1)(c1ccccc1)c1ccccc1)c1ccc(-c2cccc([N+](=O)[O-])c2)cc1 ... 12

Prompt line: What value of TGI on SN12C renal does `Oc1ccc(-c2nc3ccc4ccccc4c3c3c2CCCC3)c(O)c1` have?
Response line: 32.8

====

# Tested on: LOX IMVI melanoma
# Assay procedure: NCI tumour cell line growth inhibition, 48 h; in the data active means GI50 below about 0.43 µM; inactive means the rest
# valid calls are active, inactive; nothing else

O=C(Nc1ccc(-n2cc(-c3ccncc3)c(-c3ccc(O)c(Cl)c3)n2)cc1)c1cc(C(F)(F)F)cc(C(F)(F)F)c1 ... inactive

Prompt line: Please share the test call associated with `O=c1c2c([nH]c3ccccc13)CCCC2` .
Response line: inactive

Prompt line: Please share the test call associated with `CCNCCCn1c2c(c3ccc(F)cc3c1=O)C(=O)c1cc(OC)cnc1-2` .
Response line: active

Prompt line: Please share the test call associated with CCOC(=O)c1ccc2c(c1)[n+](=O)c(C(=O)C1CCCS1)c(C(F)(F)F)n2[O-] (centres undefined) .
Response line: active

Prompt line: Please share the test call associated with `O=C(NC(=S)Nc1ccccn1)c1ccccc1` .
Response line: inactive

Prompt line: Please share the test call associated with `CC1(C)CCC2(CC1)N[C@@H](C(=O)N[C@@H]1CC[C@@H](C(N)=O)OC1)[C@H](c1ccnc(Cl)c1F)[C@]21C(=O)Nc2cc(Cl)ccc21` .
Response line: active

Prompt line: Please share the test call associated with `COc1ccc(-c2nnc(COc3ccc(Cl)cc3Cl)o2)cc1OC` .
Response line: inactive

Prompt line: Please share the test call associated with `O=C1C(Cl)=C(Nc2cccc(O)c2)C(=O)N1CCc1ccccc1` .
Response line: inactive

Prompt line: Please share the test call associated with `CCOC(=O)c1c(NC(=O)COc2cccc3cccnc23)sc(C(=O)N(C)C)c1C` .
Response line: inactive

Prompt line: Please share the test call associated with Cc1c([C@H](C(Cl)Cl)[C@H](O)[C@H]2C[C@H](C)C(=O)O2)ccc2c1C(=O)[C@H]1[C@H]2C[C@@H](Br)[C@@]23O[C@@H](CO[C@H]2O)CC13C (some centres undefined) .
Response line: inactive

Prompt line: Please share the test call associated with `O=C(/C=C/c1cc2ccccc2[nH]c1=O)c1ccc(Cl)cc1` .
Response line: inactive

Prompt line: Please share the test call associated with `N#Cc1c(-c2ccc(Cl)cc2)csc1NC(=O)Nc1ccc(Cl)c(C(F)(F)F)c1` .
Response line: inactive

Prompt line: Please share the test call associated with COc1cccc2c1C(=O)c1c(O)c3c(c(O)c1C2=O)CC(O)(/C(C)=N/NC(=O)CCCCC(=O)N/N=C(\C)C1(O)Cc2c(O)c4c(c(O)c2C(OC2CC(N)C(O)C(C)O2)C1)C(=O)c1c(OC)cccc1C4=O)CC3OC1CC(N)C(O)C(C)O1 (centres undefined) .
Response line: active

Prompt line: Please share the test call associated with `O=[N+]([O-])c1ccc(C(Br)c2ccc([N+](=O)[O-])cc2)cc1` .
Response line: inactive
